Test system: Pseudomonas aeruginosa PA14 wild type
Assay: respiration area under curve with compound as sole nitrogen source, 24 h (OmniLog AUC (arbitrary units)); higher = more respiration / better utilisation as nitrogen source, active = 2000 or more
Classes used: active, inactive

>>> discrete_label("CC(C)C[C@@H](N)C(=O)NCC(=O)O (plate: PM8)")
"inactive"
>>> discrete_label("CC(C)C[C@H](NC(=O)[C@@H]1CCCN1)C(=O)O (plate: PM7)")
"active"
>>> discrete_label("CSCCC(N)C(=O)NC(CCSC)C(=O)O (stereo not drawn) (plate: PM7)")
"inactive"
